system: Plasmodium falciparum; test: GSK_TCMDC: Inhibition of Plasmodium falciparum 3D7 in whole erythrocytes, using parasite LDH activity as an index of growth.; assay type: functional, organism-based; settings: Plasmodium falciparum, 3D7
Recorded measurements of XC50, one per entry

Observe how each entry below is paired with its result.
{"compound": "Fc1ccc(N(c2nc(-c3cc(F)cc(C(F)(F)F)c3)cs2)C2CCNCC2)cc1", "result": "0.956 µM"}
{"compound": "FC(F)(F)COc1c(CNCCCCCCNCc2ccc3ccccc3c2OCC(F)(F)F)ccc2ccccc12", "result": "0.761 µM"}
{"compound": "CN(c1ccc2c(c1)nc(NCc1ccc(F)cc1)n2C)c1ccnc(Nc2ccc(CS(C)(=O)=O)cc2)n1", "result": "0.828 µM"}
{"compound": "CCN(CC)CCCC(C)Nc1ccnc2ccc(OC)cc12 (stereo not given)", "result": "0.822 µM"}
{"compound": "CC(Cc1ccc(NC(=O)c2ccc(CNCc3ccccc3)cc2)cc1)N(CCc1cccc(Cl)c1)C(=O)OC(C)(C)C (stereo not given)", "result": "0.974 µM"}

Record request: XC50 value, item CCCCCCCNc1cc(C)nc2ccc(OC)cc12
0.671 µM

Reported XC50, compound COc1cccc(CCc2c(CCNCCCCCCNCCc3ccccc3)ccc(OC)c2OC)c1 : ____
0.721 µM

I am curious: what XC50 value has been reported for N=C1NC(=N)N(OCCCCCCON2C(=N)NC(=N)NC2C=Cc2ccccc2)C(C=Cc2ccccc2)N1 (stereo not given) ?
0.615 µM

Which measured XC50 value corresponds to CC1(C)CCCN(C(=O)c2cccc(-n3nc(-c4ccc(Cl)cc4)cc3N)c2)C1 ?
0.712 µM

Fill in the blank: the reported XC50 of COc1ccc(OC(C)CNC(=O)c2cc([N+](=O)[O-])ccc2-c2ccc(OC)cc2)cc1 (stereo not given) is ____.
1.15 µM

* * *

tested on: Plasmodium falciparum; assay: GSK_TCMDC: Inhibition of Plasmodium falciparum 3D7 in whole erythrocytes, using parasite LDH activity as an index of growth.; type: functional, organism-based; settings: Plasmodium falciparum, 3D7
Consider the cut-off 800 nM. If the recorded XC50 is strictly smaller, the label is class 1; if not, the label is class 0.

Worked cases, answers included:
{"smiles-input": "CS(=O)(=O)c1cccc(-c2ccc3oc(C(N)=O)c(NC(=O)c4cccs4)c3c2)c1", "qualitative-label": "class 1"}
{"smiles-input": "CCn1cnc2c(N3CCCS3(=O)=O)cc(C(=O)N[C@@H](Cc3ccccc3)[C@H](O)CNC(C)(C)c3cccc(C(F)(F)F)c3)cc21", "qualitative-label": "class 1"}
{"smiles-input": "c1cc(COc2ccc(C3=NCCN3)cc2)nc(COc2ccc(C3=NCCN3)cc2)c1", "qualitative-label": "class 1"}
{"smiles-input": "COc1ccc(S(=O)(=O)NCCCC2CCN(CCCCCNC(=O)C=Cc3ccc(Cl)c(Cl)c3)CC2)cc1", "qualitative-label": "class 0"}

Next molecule, please.
Criterion: XC50 strictly below 800 nM. Is it met by O=C(Nc1cccc(-c2ccc(-c3nc4cc(C(F)(F)F)ccc4[nH]3)cc2)c1)c1ccncc1 ?
class 1

* * *

system: Plasmodium falciparum; experiment: GSK_TCMDC: Inhibition of Plasmodium falciparum 3D7 in whole erythrocytes, using parasite LDH activity as an index of growth.; assay type: functional, organism-based; conditions: Plasmodium falciparum, 3D7
measured-endpoint: log10 of XC50 (log10 of the value in nM)
A value of 2 here means XC50 of 100 in nM, since values are log10.

For orientation, consider the following solved cases.
{"molecule": "CCC[C@@H]([C@@H](CC(C)C)C(=O)N[C@@H](CCC/N=C(/N)NS(C)(=O)=O)C(=O)Nc1nccs1)N(O)C=O", "log10 of XC50": 2.97}
{"molecule": "O=C(NCC1CCN(Cc2ccsc2)C1)c1cc(-c2cccc(C(F)(F)F)c2)cs1 (stereo not drawn)", "log10 of XC50": 2.85}
{"molecule": "N[C@@H](COc1cccc2c(-c3ccncc3)c(-c3cccc(NC(=O)Nc4ccccc4)c3)nn12)c1ccccc1", "log10 of XC50": 2.61}
{"molecule": "CC(CN(C)C)C(=O)Nc1ccc(-c2cccc(-c3nc4cc(C(F)(F)F)ccc4[nH]3)c2)cc1 (stereo not drawn)", "log10 of XC50": 2.32}
{"molecule": "O=C(NC1CCC1)C1CCN(C(c2ccc(Cl)cc2)c2ccc(Cl)cc2)CC1", "log10 of XC50": 2.75}

Using the record for O=C(c1ccc(-c2cccc(-c3nc4cc(F)ccc4[nH]3)c2)cc1)N1CCCCC1CN1CCC(O)C1 (stereo not drawn) , report its log10 of XC50.
3.15

Requested field: log10 of XC50. Item: O=S(=O)(Nc1ccc(CCN2CCC(N3CCCCC3)CC2)cc1)c1ccccc1C(F)(F)F
3.01

I am curious: what log10 of XC50 value has been reported for FC(F)(F)c1ccc2[nH]c(-c3ccc(-c4ccc(CN5CCN(c6ccncc6)CC5)cc4)cc3)nc2c1 ?
1.80
